Organism: Bos taurus
Assay: Thermal denaturation (deltaTm) of compound against calf thymus DNA was measured
Format: ADME
Conditions: cattle, in vitro
Overview of recorded Delta Tm for various compounds
Form: value (number only, do not type unit).

molecule: COc1cc(C(=O)N[C@@H]2C(=O)N[C@H](C(C)C)C(=O)N3CCC[C@H]3C(=O)N(C)CC(=O)N(C)[C@@H](C(C)C)C(=O)O[C@@H]2C)c2nc3c(C(=O)N[C@@H]4C(=O)N[C@H](C(C)C)C(=O)N5CCC[C@H]5C(=O)N(C)CC(=O)N(C)[C@@H](C(C)C)C(=O)O[C@@H]4C)c(N)c(=O)c(C)c-3oc2c1C
Delta Tm: 5.5

The reported value for "CCCCCNc1c(C(=O)N[C@@H]2C(=O)N[C@H](C(C)C)C(=O)N3CCC[C@H]3C(=O)N(C)CC(=O)N(C)[C@@H](C(C)C)C(=O)O[C@@H]2C)c2nc3c(C(=O)N[C@@H]4C(=O)N[C@H](C(C)C)C(=O)N5CCC[C@H]5C(=O)N(C)CC(=O)N(C)[C@@H](C(C)C)C(=O)O[C@@H]4C)ccc(C)c3oc-2c(C)c1=O" in terms of Delta Tm is 0

* * *

System: P388
Assay: Optimal dose for antitumor activity was measured in P388 cells of CDF1 male mice in vivo
Assay type: functional, Mus musculus
Overview of recorded Optimal dose for various compounds
Answer format: numeric, mg/kg implied, no suffix.

Worked examples, 2 compounds total:
molecule: CCCOc1cc(C(=O)N[C@@H]2C(=O)N[C@H](C(C)C)C(=O)N3CCC[C@H]3C(=O)N(C)CC(=O)N(C)[C@@H](C(C)C)C(=O)O[C@@H]2C)c2nc3c(C(=O)N[C@@H]4C(=O)N[C@H](C(C)C)C(=O)N5CCC[C@H]5C(=O)N(C)CC(=O)N(C)[C@@H](C(C)C)C(=O)O[C@@H]4C)c(N)c(=O)c(C)c-3oc2c1C
Optimal dose, mg/kg: 0.75
--
molecule: Cc1c2oc3c(C)c(OCc4ccc([N+](=O)[O-])cc4)cc(C(=O)N[C@@H]4C(=O)N[C@H](C(C)C)C(=O)N5CCC[C@H]5C(=O)N(C)CC(=O)N(C)[C@@H](C(C)C)C(=O)O[C@@H]4C)c3nc-2c(C(=O)N[C@@H]2C(=O)N[C@H](C(C)C)C(=O)N3CCC[C@H]3C(=O)N(C)CC(=O)N(C)[C@@H](C(C)C)C(=O)O[C@@H]2C)c(N)c1=O
Optimal dose, mg/kg: 0.6

Please examine the following record next.
The reported value for "CCCCOc1cc(C(=O)N[C@@H]2C(=O)N[C@H](C(C)C)C(=O)N3CCC[C@H]3C(=O)N(C)CC(=O)N(C)[C@@H](C(C)C)C(=O)O[C@@H]2C)c2nc3c(C(=O)N[C@@H]4C(=O)N[C@H](C(C)C)C(=O)N5CCC[C@H]5C(=O)N(C)CC(=O)N(C)[C@@H](C(C)C)C(=O)O[C@@H]4C)c(N)c(=O)c(C)c-3oc2c1C" in terms of Optimal dose is 0.75

* * *

System: Calf thymus DNA
Assay: Apparent number of binding sites per base pairs in DNA
Assay type: nucleic-acid assay
Details: Bos taurus
*1 amine or outer side, *2 acyl side, *3 side chain or, on linkers, in order; H or OH if unused. Where a SMILES comes first, the peptide text is derived from it. Bridges are numbered along the chain shown (N, C = ends). Roman numbers before positions name the chains, in order. [ ]: non-standard residue; d: D form. Actinocin(9to1) = Cc1c2oc3c(C)ccc(C(=O)[*:1])c3nc-2c(C(=O)[*:2])c(N)c1=O; NMeV = CN[C@H](C(=O)O)C(C)C; Sar = CNCC(=O)O
Overview of recorded Bapp for various molecules
Form: value (number only, do not type unit).

molecule: Cc1c2oc3c(C)c(O)c(N)c(C(=O)N[C@H]4C(=O)N[C@@H](C(C)C)C(=O)N5CCC[C@H]5C(=O)N(C)CC(=O)N(C)[C@H](C(C)C)C(=O)O[C@H]4C)c3nc-2c(C(=O)N[C@@H]2C(=O)N[C@H](C(C)C)C(=O)N3CCC[C@@H]3C(=O)N(C)CC(=O)N(C)[C@@H](C(C)C)C(=O)O[C@@H]2C)c/c1=N/Cc1ccc[nH]1
target: Calf thymus DNA
Bapp: 0.055

molecule: CCCOc1cc(C(=O)N[C@@H]2C(=O)N[C@H](C(C)C)C(=O)N3CCC[C@@H]3C(=O)N(C)CC(=O)N(C)[C@@H](C(C)C)C(=O)O[C@@H]2C)c2nc3c(C(=O)N[C@H]4C(=O)N[C@@H](C(C)C)C(=O)N5CCC[C@H]5C(=O)N(C)CC(=O)N(C)[C@H](C(C)C)C(=O)O[C@H]4C)c(N)c(=O)c(C)c-3oc2c1C
target: Calf thymus DNA
Bapp: 0.078

molecule: CCOc1cc(C(=O)N[C@@H]2C(=O)N[C@H](C(C)C)C(=O)N3CCC[C@@H]3C(=O)N(C)CC(=O)N(C)[C@@H](C(C)C)C(=O)O[C@@H]2C)c2nc3c(C(=O)N[C@H]4C(=O)N[C@@H](C(C)C)C(=O)N5CCC[C@H]5C(=O)N(C)CC(=O)N(C)[C@H](C(C)C)C(=O)O[C@H]4C)c(N)c(=O)c(C)c-3oc2c1C
target: Calf thymus DNA
Bapp: 0.097

molecule: Cc1c2oc3c(C)c(O)c(N)c(C(=O)N[C@@H]4C(=O)N[C@H](C(C)C)C(=O)N5CCC[C@H]5C(=O)N(C)CC(=O)N(C)[C@@H](C(C)C)C(=O)O[C@H]4C)c3nc-2c(C(=O)N[C@@H]2C(=O)N[C@H](C(C)C)C(=O)N3CCC[C@H]3C(=O)N(C)CC(=O)N(C)[C@@H](C(C)C)C(=O)O[C@H]2C)cc1=N
target: Calf thymus DNA
Bapp: 0.121

molecule: Cc1c2oc3c(C)ccc(C(=O)N[C@@H]4C(=O)N[C@H](C(C)C)C(=O)N5CCC[C@H]5C(=O)N(C)CC(=O)N(C)[C@@H](C(C)C)C(=O)O[C@@H]4C)c3nc-2c(C(=O)N[C@@H]2C(=O)N[C@H](C(C)C)C(=O)N3CCC[C@H]3C(=O)N(C)CC(=O)N(C)[C@@H](C(C)C)C(=O)O[C@@H]2C)c(N)c1=O [DACTINOMYCIN] (I: T[dV]P[Sar][NMeV] / II: T[dV]P[Sar][NMeV]; ester I:1-I:C, II:1-II:C; linker I:N-II:N via Actinocin(9to1))
target: Calf thymus DNA
Bapp: 0.108

Please examine the following record next.
The reported value for "Cc1c2oc3c(C)c(O)c(N)c(C(=O)N[C@H]4C(=O)N[C@@H](C(C)C)C(=O)N5CCC[C@H]5C(=O)N(C)CC(=O)N(C)[C@H](C(C)C)C(=O)O[C@H]4C)c3nc-2c(C(=O)N[C@@H]2C(=O)N[C@H](C(C)C)C(=O)N3CCC[C@@H]3C(=O)N(C)CC(=O)N(C)[C@@H](C(C)C)C(=O)O[C@@H]2C)c/c1=N/Cc1ccc(Cl)c(Cl)c1" in terms of Bapp is 0.058

* * *

Overview of recorded Delta Tm for various molecules
Species: Bos taurus
Assay: Thermal denaturation (deltaTm) of compound against calf thymus DNA was measured
Assay type: ADME
Details: cattle, in vitro

molecule: CCCCCCCCC/N=c1/cc(C(=O)N[C@@H]2C(=O)N[C@H](C(C)C)C(=O)N3CCC[C@H]3C(=O)N(C)CC(=O)N(C)[C@@H](C(C)C)C(=O)O[C@@H]2C)c2nc3c(C(=O)N[C@@H]4C(=O)N[C@H](C(C)C)C(=O)N5CCC[C@H]5C(=O)N(C)CC(=O)N(C)[C@@H](C(C)C)C(=O)O[C@@H]4C)c(N)c(O)c(C)c3oc-2c1C
Delta Tm: 1.1

The reported value for "Cc1c2oc3c(C)c(OCc4ccc(Cl)cc4)cc(C(=O)N[C@@H]4C(=O)N[C@H](C(C)C)C(=O)N5CCC[C@H]5C(=O)N(C)CC(=O)N(C)[C@@H](C(C)C)C(=O)O[C@@H]4C)c3nc-2c(C(=O)N[C@@H]2C(=O)N[C@H](C(C)C)C(=O)N3CCC[C@H]3C(=O)N(C)CC(=O)N(C)[C@@H](C(C)C)C(=O)O[C@@H]2C)c(N)c1=O" in terms of Delta Tm is 0

* * *

Test system: P388
Assay: Concentration required for 50% inhibition of incorporation of labeled thymidine by p388 cells for synthesis of DNA (in vitro)
Format: functional
Settings: Mus musculus, read-out: ED50 (the source's name)
*1 amine or outer side, *2 acyl side, *3 side chain or, on linkers, in order; H or OH if unused. Where a SMILES comes first, the peptide text is derived from it. Bridges are numbered along the chain shown (N, C = ends). Roman numbers before positions name the chains, in order. [ ]: non-standard residue; d: D form. Actinocin(9to1) = Cc1c2oc3c(C)ccc(C(=O)[*:1])c3nc-2c(C(=O)[*:2])c(N)c1=O; NMeV = CN[C@H](C(=O)O)C(C)C; Sar = CNCC(=O)O
Overview of recorded log10(EC50) for various molecules
Plainly stated, the numbers are log10 of EC50 given in nM.

Worked examples, 8 molecules total:
molecule: Cc1c2oc3c(C)c(O)c(N)c(C(=O)N[C@@H]4C(=O)N[C@H](C(C)C)C(=O)N5CCC[C@H]5C(=O)N(C)CC(=O)N(C)[C@@H](C(C)C)C(=O)O[C@@H]4C)c3nc-2c(C(=O)N[C@@H]2C(=O)N[C@H](C(C)C)C(=O)N3CCC[C@H]3C(=O)N(C)CC(=O)N(C)[C@@H](C(C)C)C(=O)O[C@@H]2C)cc1=O
target: P388
log10(EC50): 3.71
//
molecule: COc1cc(C(=O)N[C@@H]2C(=O)N[C@H](C(C)C)C(=O)N3CCC[C@H]3C(=O)N(C)CC(=O)N(C)[C@@H](C(C)C)C(=O)O[C@@H]2C)c2nc3c(C(=O)N[C@@H]4C(=O)N[C@H](C(C)C)C(=O)N5CCC[C@H]5C(=O)N(C)CC(=O)N(C)[C@@H](C(C)C)C(=O)O[C@@H]4C)c(N)c(=O)c(C)c-3oc2c1C
target: P388
log10(EC50): 2.80
//
molecule: CCCOc1cc(C(=O)N[C@@H]2C(=O)N[C@H](C(C)C)C(=O)N3CCC[C@H]3C(=O)N(C)CC(=O)N(C)[C@@H](C(C)C)C(=O)O[C@@H]2C)c2nc3c(C(=O)N[C@@H]4C(=O)N[C@H](C(C)C)C(=O)N5CCC[C@H]5C(=O)N(C)CC(=O)N(C)[C@@H](C(C)C)C(=O)O[C@@H]4C)c(N)c(=O)c(C)c-3oc2c1C
target: P388
log10(EC50): 3.30
//
molecule: Cc1c2oc3c(C)ccc(C(=O)N[C@@H]4C(=O)N[C@H](C(C)C)C(=O)N5CCC[C@H]5C(=O)N(C)CC(=O)N(C)[C@@H](C(C)C)C(=O)O[C@@H]4C)c3nc-2c(C(=O)N[C@@H]2C(=O)N[C@H](C(C)C)C(=O)N3CCC[C@H]3C(=O)N(C)CC(=O)N(C)[C@@H](C(C)C)C(=O)O[C@@H]2C)c(N)c1=O [DACTINOMYCIN] (I: T[dV]P[Sar][NMeV] / II: T[dV]P[Sar][NMeV]; ester I:1-I:C, II:1-II:C; linker I:N-II:N via Actinocin(9to1))
target: P388
log10(EC50): 3.00
//
molecule: Cc1c2oc3c(C)c(O)c(N)c(C(=O)N[C@@H]4C(=O)N[C@H](C(C)C)C(=O)N5CCC[C@H]5C(=O)N(C)CC(=O)N(C)[C@@H](C(C)C)C(=O)O[C@@H]4C)c3nc-2c(C(=O)N[C@@H]2C(=O)N[C@H](C(C)C)C(=O)N3CCC[C@H]3C(=O)N(C)CC(=O)N(C)[C@@H](C(C)C)C(=O)O[C@@H]2C)c/c1=N/Cc1ccc[nH]1
target: P388
log10(EC50): 2.57
//
molecule: Cc1c2oc3c(C)c(O)c(N)c(C(=O)N[C@@H]4C(=O)N[C@H](C(C)C)C(=O)N5CCC[C@H]5C(=O)N(C)CC(=O)N(C)[C@@H](C(C)C)C(=O)O[C@@H]4C)c3nc-2c(C(=O)N[C@@H]2C(=O)N[C@H](C(C)C)C(=O)N3CCC[C@H]3C(=O)N(C)CC(=O)N(C)[C@@H](C(C)C)C(=O)O[C@@H]2C)c/c1=N/Cc1ccco1
target: P388
log10(EC50): 3.39
//
molecule: CCCCOc1cc(C(=O)N[C@@H]2C(=O)N[C@H](C(C)C)C(=O)N3CCC[C@H]3C(=O)N(C)CC(=O)N(C)[C@@H](C(C)C)C(=O)O[C@@H]2C)c2nc3c(C(=O)N[C@@H]4C(=O)N[C@H](C(C)C)C(=O)N5CCC[C@H]5C(=O)N(C)CC(=O)N(C)[C@@H](C(C)C)C(=O)O[C@@H]4C)c(N)c(=O)c(C)c-3oc2c1C
target: P388
log10(EC50): 4.05
//
molecule: Cc1c2oc3c(C)c(OC(=O)C45CC6CC(CC(C6)C4)C5)cc(C(=O)N[C@@H]4C(=O)N[C@H](C(C)C)C(=O)N5CCC[C@H]5C(=O)N(C)CC(=O)N(C)[C@@H](C(C)C)C(=O)O[C@@H]4C)c3nc-2c(C(=O)N[C@@H]2C(=O)N[C@H](C(C)C)C(=O)N3CCC[C@H]3C(=O)N(C)CC(=O)N(C)[C@@H](C(C)C)C(=O)O[C@@H]2C)c(N)c1=O
target: P388
log10(EC50): 2.86

The reported value for "CCOc1cc(C(=O)N[C@@H]2C(=O)N[C@H](C(C)C)C(=O)N3CCC[C@H]3C(=O)N(C)CC(=O)N(C)[C@@H](C(C)C)C(=O)O[C@@H]2C)c2nc3c(C(=O)N[C@@H]4C(=O)N[C@H](C(C)C)C(=O)N5CCC[C@H]5C(=O)N(C)CC(=O)N(C)[C@@H](C(C)C)C(=O)O[C@@H]4C)c(N)c(=O)c(C)c-3oc2c1C" in terms of log10(EC50) is 3.21

The reported value for "Cc1c2oc3c(C)c(O)c(N)c(C(=O)N[C@@H]4C(=O)N[C@H](C(C)C)C(=O)N5CCC[C@H]5C(=O)N(C)CC(=O)N(C)[C@@H](C(C)C)C(=O)O[C@@H]4C)c3nc-2c(C(=O)N[C@@H]2C(=O)N[C@H](C(C)C)C(=O)N3CCC[C@H]3C(=O)N(C)CC(=O)N(C)[C@@H](C(C)C)C(=O)O[C@@H]2C)cc1=N" in terms of log10(EC50) is 3.09
